- protocol-text: AUC in Swiss albino mouse plasma at 0.2 mmol/Kg, po measured after 24 hrs by HPLC analysis
- Format: ADME, organism-based
- Design: dose 0.2 mmol/Kg, time 24 hrs, route po
- test-settings: in vivo
reported-endpoint: AUC

// recorded AUC for CCOC(=O)C1=C(C)NC(C)=C(C(=O)OCC)C1c1cccc2c1OCO2 : 36.7 ng·h/mL

* * *

- protocol-text: Half life in Swiss albino mouse plasma at 0.2 mmol/Kg, po measured after 24 hrs by HPLC analysis
- Format: ADME, organism-based
reported-endpoint: half-life (h)
Express your answer in h, writing the number without its unit.

// recorded half-life for CCOC(=O)C1=C(C)NC(C)=C(C(=O)OCC)C1c1cccc2c1OCO2 : 1.9

* * *

Each item that follows carries a reported inhibition at 10 µM.
- protocol-text: Cytotoxicity against human MCF-10F cells assessed as cell growth inhibition at 10 uM relative to control
- Assay type: toxicity, cell-based
- test-settings: read-out: GI
Express your answer in %, writing the number without its unit.

1. COc1cccc2c1C(=O)c1c(O)c3c(c(O)c1C2=O)C[C@@](O)(C(=O)CO)C[C@@H]3O[C@H]1C[C@H](N)[C@H](O)[C@H](C)O1 [DOXORUBICIN]    41.6
2. C[C@H]1O[C@H](O[C@H]2[C@H](O)[C@@H](O)[C@@H](O[C@H]3[C@H](O)[C@@H](O)C(O)O[C@@H]3CO)O[C@@H]2CO)[C@H](O)[C@@H](O)[C@@H]1N[C@H]1C=C(CO)[C@@H](O)[C@H](O)[C@H]1O (some centres undefined) [ACARBOSE]    10.5
3. CCOC(=O)C1=C(C)NC(C)=C(C(=O)OCC)C1c1cccc2c1OCO2    28.7

Next molecule, inhibition at 10 µM to be filled in.
// recorded inhibition at 10 µM for CCC1=C(C)CN(C(=O)NCCc2ccc(S(=O)(=O)NC(=O)N[C@H]3CC[C@H](C)CC3)cc2)C1=O [GLIMEPIRIDE] : 27.1

* * *

Each item that follows carries a reported inhibition at 10 µM.
- protocol-text: Cytotoxicity against HEK293 cells assessed as cell growth inhibition at 10 uM relative to control
- Type: toxicity, cell-based
- test-settings: human, read-out: GI
Express your answer in %, writing the number without its unit.

Reference set, count: 2
1. CCC1=C(C)CN(C(=O)NCCc2ccc(S(=O)(=O)NC(=O)N[C@H]3CC[C@H](C)CC3)cc2)C1=O [GLIMEPIRIDE]    74
2. C[C@H]1O[C@H](O[C@H]2[C@H](O)[C@@H](O)[C@@H](O[C@H]3[C@H](O)[C@@H](O)C(O)O[C@@H]3CO)O[C@@H]2CO)[C@H](O)[C@@H](O)[C@@H]1N[C@H]1C=C(CO)[C@@H](O)[C@H](O)[C@H]1O (some centres undefined) [ACARBOSE]    80.7

// recorded inhibition at 10 µM for COc1cccc2c1C(=O)c1c(O)c3c(c(O)c1C2=O)C[C@@](O)(C(=O)CO)C[C@@H]3O[C@H]1C[C@H](N)[C@H](O)[C@H](C)O1 [DOXORUBICIN] : 46

// recorded inhibition at 10 µM for CCOC(=O)C1=C(C)NC(C)=C(C(=O)OCC)C1c1cccc2c1OCO2 : 41.3

* * *

- System: Mus musculus
- protocol-text: Antidiabetic activity against high fat diet-STZ-induced diabetic Swiss albino mouse model assessed as reduction in blood glucose level at 0.2 mmol/Kg/day, po administered for 14 days relative to glimepiride
- Assay type: functional
- Set-up: scale not given: the % may be the effect or the level left
- test-settings: time 14 day
Each item that follows carries a reported Activity.
Express your answer in %, writing the number without its unit.

1. CCOC(=O)C1=C(C)NC(C)=C(C(=O)OCc2ccccc2)C1c1ccc2c(c1)OCO2 (stereo not drawn)    129
2. CCOC(=O)C1=C(C)NC(C)=C(C(=O)OCC)C1c1cccc2c1OCO2    218
3. CC1=C(C(=O)OCc2ccccc2)C(c2cccc3c2OCO3)C(C(=O)OCc2ccccc2)=C(C)N1    129

Summary line: CC1=C(C(=O)OC(C)C)C(c2ccc3c(c2)OCCO3)C(C(=O)OC(C)C)=C(C)N1 , Mus musculus, reported Activity = 1
